# protocolDetails: in vivo
# studyConditions: C57BL/6, mouse, iv, 5 mg/kg
quantityName: Cmax

INSERT INTO results (entrysmiles, measured) VALUES
  ('C=CCc1ccc(O)c(-c2ccc(O)c(CC=C)c2)c1', '2400 ng/mL');

----------
# protocolDetails: in vivo
# studyConditions: C57BL/6, mouse, iv, 5 mg/kg
quantityName: Half-life (min)

INSERT INTO results (entrysmiles, quantityname, valueunits, measured) VALUES
  ('C=CCc1ccc(O)c(-c2ccc(O)c(CC=C)c2)c1', 'Half-life', 'min', 42);

----------
# protocolDetails: Oral pharmacokinetics of ME in corn oil in mice
# studyConditions: C57BL/6, mouse, in vivo, po, 60 mg/kg
quantityName: Half-life (h)

INSERT INTO measurements (entrysmiles, valueunits, measured) VALUES
  ('C=CCc1ccc(O)c(-c2cc(CC=C)ccc2O)c1', 'h', 3.8);

----------
# protocolDetails: Oral pharmacokinetics of ME nanosuspension in mice
# studyConditions: C57BL/6, mouse, in vivo, po, 60 mg/kg
quantityName: AUC(0-inf) (ng·h/mL)

INSERT INTO assay_data (compound, quantityname, valueunits, measured) VALUES
  ('C=CCc1ccc(O)c(-c2cc(CC=C)ccc2O)c1 [MGN, magnolol]', 'AUC(0-inf)', 'ng·h/mL', 182);

----------
# protocolDetails: Oral pharmacokinetics of ME nanosuspension in mice
# studyConditions: C57BL/6, mouse, in vivo, po, 60 mg/kg
quantityName: Tmax (h)

INSERT INTO results (entrysmiles, measured) VALUES
  ('C=CCc1ccc(O)c(-c2cc(CC=C)ccc2O)c1', 2.2);

----------
# protocolDetails: I.V. pharmacokinetics of ME nanosuspension in mice
# studyConditions: C57BL/6, mouse, in vivo, iv, 5 mg/kg
quantityName: clearance (mL/min/kg)

INSERT INTO results (entrysmiles, valueunits, measured) VALUES
  ('C=CCc1ccc(O)c(-c2cc(CC=C)ccc2O)c1', 'mL/min/kg', 13.3);

----------
# protocolDetails: in vivo
# studyConditions: C57BL/6, mouse, iv, 5 mg/kg
quantityName: MRT last

INSERT INTO measurements (molecule, measured) VALUES
  ('C=CCc1ccc(O)c(-c2ccc(O)c(CC=C)c2)c1 [HNK, honokiol]', '36 min');

----------
# protocolDetails: I.V. pharmacokinetics of ME nanosuspension in mice
# studyConditions: C57BL/6, mouse, in vivo, iv, 5 mg/kg
quantityName: MRT last (min)

INSERT INTO measurements (entrysmiles, quantityname, measured) VALUES
  ('C=CCc1ccc(O)c(-c2cc(CC=C)ccc2O)c1', 'MRT last', 48);

----------
# protocolDetails: I.V. pharmacokinetics of ME nanosuspension in mice
# studyConditions: C57BL/6, mouse, in vivo, iv, 5 mg/kg
quantityName: Half-life (h)

INSERT INTO results (entrysmiles, valueunits, measured) VALUES
  ('C=CCc1ccc(O)c(-c2cc(CC=C)ccc2O)c1', 'h', 1);

----------
# protocolDetails: I.V. pharmacokinetics of ME nanosuspension in mice
# studyConditions: C57BL/6, mouse, in vivo, iv, 5 mg/kg
quantityName: AUC(0-inf) (ng·h/mL)

INSERT INTO assay_data (entrysmiles, quantityname, measured) VALUES
  ('C=CCc1ccc(O)c(-c2cc(CC=C)ccc2O)c1', 'AUC(0-inf)', 1230);

----------
# protocolDetails: Oral pharmacokinetics of ME in corn oil in mice
# studyConditions: C57BL/6, mouse, in vivo, po, 60 mg/kg
quantityName: MRT last (h)

INSERT INTO measurements (entrysmiles, valueunits, measured) VALUES
  ('C=CCc1ccc(O)c(-c2cc(CC=C)ccc2O)c1', 'h', 2.3);

----------
# protocolDetails: Oral pharmacokinetics of ME nanosuspension in mice
# studyConditions: C57BL/6, mouse, in vivo, po, 60 mg/kg
quantityName: AUC(0-t)

INSERT INTO results (entrysmiles, quantityname, measured) VALUES
  ('C=CCc1ccc(O)c(-c2cc(CC=C)ccc2O)c1', 'AUC(0-t)', '176 ng·h/mL');

----------
# protocolDetails: in vivo
# studyConditions: C57BL/6, mouse, iv, 5 mg/kg
quantityName: AUC(0-t) (ng·h/mL)

INSERT INTO measurements (molecule, measured) VALUES
  ('C=CCc1ccc(O)c(-c2ccc(O)c(CC=C)c2)c1 [HNK, honokiol]', 1150);

----------
# protocolDetails: in vivo
# studyConditions: C57BL/6, mouse, iv, 5 mg/kg
quantityName: AUC(0-inf)

INSERT INTO results (entrysmiles, measured) VALUES
  ('C=CCc1ccc(O)c(-c2ccc(O)c(CC=C)c2)c1', '1150 ng·h/mL');

----------
# protocolDetails: I.V. pharmacokinetics of ME nanosuspension in mice
# studyConditions: C57BL/6, mouse, in vivo, iv, 5 mg/kg
quantityName: Cmax (ng/mL)

INSERT INTO assay_data (entrysmiles, quantityname, measured) VALUES
  ('C=CCc1ccc(O)c(-c2cc(CC=C)ccc2O)c1', 'Cmax', 2280);

----------
# protocolDetails: I.V. pharmacokinetics of ME nanosuspension in mice
# studyConditions: C57BL/6, mouse, in vivo, iv, 5 mg/kg
quantityName: AUC(0-t)

INSERT INTO assay_data (entrysmiles, measured) VALUES
  ('C=CCc1ccc(O)c(-c2cc(CC=C)ccc2O)c1', '1230 ng·h/mL');

----------
# protocolDetails: Oral pharmacokinetics of ME in corn oil in mice
# studyConditions: C57BL/6, mouse, in vivo, po, 60 mg/kg
quantityName: AUC(0-inf)

INSERT INTO results (entrysmiles, quantityname, measured) VALUES
  ('C=CCc1ccc(O)c(-c2cc(CC=C)ccc2O)c1', 'AUC(0-inf)', '0.0378 µg·h/mL');
